- Test system: portions of intestine turned inside out
- experimental-protocol: absorption by portions of intestine turned inside out
- Format: in vitro ADME
- measurement-setup: 37° C., Krebs Ringer, external concentration 10^-4 M; H2 SO4 salts, m 0 or 1, n 3
- Procedure: In the 2nd test, portions of intestine turned inside out were used, incubated at 37° C. in accordance with Krebs Ringer against an external product concentration of 10^-4 M. The products were all salified with H2 SO4 to give salts in which m was 0 or 1 and n was 3.
readout: PRODUCT ABSORPTION intestine inside out (nmoles/h/mg tissue)

Examples from the recorded data:
compound	reading-unit	PRODUCT ABSORPTION intestine inside out
C[S+](CC[C@H](NC(=O)CCC(=O)O)C(=O)[O-])C[C@H]1O[C@@H](n2cnc3c(N)ncnc32)[C@H](O)[C@@H]1O (stereo partly shown) [H Succinyl H, SAM succinyl]	nmoles/h/mg tissue	0.016
CCCCCOC(=O)[C@@H](N)CC[S+](C)C[C@H]1O[C@@H](n2cnc3c(N)ncnc32)[C@H](O)[C@@H]1O (stereo partly shown) [C5 H11 H H, SAM n-pentyl ester]	nmoles/h/mg tissue	0.025

1 = Cc1ccc(S(=O)(=O)N[C@@H](CC[S+](C)C[C@H]2O[C@@H](n3cnc4c(N)ncnc43)[C@H](O)[C@@H]2O)C(=O)[O-])cc1 (stereo partly shown) [H p.tol. sulphon. H, SAM p-toluenesulphonyl]
2 = CC(=O)N[C@@H](CC[S+](C)C[C@H]1O[C@@H](n2cnc3c(N)ncnc32)[C@H](O)[C@@H]1O)C(=O)[O-] (stereo partly shown) [H COCH3 H, SAM monoacetyl]
Query :: Lower PRODUCT ABSORPTION intestine inside out: 1 or 2 ? Mark your selection by writing its label.
Result :: 1
(1: 0.021 nmoles/h/mg tissue, 2: 0.046 nmoles/h/mg tissue)

* * *

- experimental-protocol: stability in the dry state at 45° C.
- Type: physicochemical
readout: degraded at 8640 h (%)
Expressed in %, but write only the number.

Query :: May I ask what degraded at 8640 h has been recorded for C[S+](CC[C@H](N)C(=O)[O-])C[C@H]1O[C@@H](n2cnc3c(N)ncnc32)[C@H](O)[C@@H]1O (stereo partly shown) ?
Result :: 100

* * *

- experimental-protocol: absorption "in situ" (intestinal sacs)
- Format: in vivo, rat
- measurement-setup: rat, in situ intestinal sacs, 2 mg in 1 ml physiological solution, rats, H2 SO4 salts, m 0 or 1, n 3, read-out: PRODUCT ABSORPTION in sacs
readout: Fa at 2 h (%)

compound	value-measured
COC(=O)[C@@H](N)CC[S+](C)C[C@H]1O[C@@H](n2cnc3c(N)ncnc32)[C@H](O)[C@@H]1O (stereo partly drawn)	55
C[S+](CC[C@H](NC(=O)CCC(=O)O)C(=O)[O-])C[C@H]1O[C@@H](n2cnc3c(N)ncnc32)[C@H](O)[C@@H]1O (stereo partly drawn)	25
CCCCC(=O)N[C@@H](CC[S+](C)C[C@H]1O[C@@H](n2cnc3c(N)ncnc32)[C@H](O)[C@@H]1O)C(=O)[O-] (stereo partly drawn)	18
CC(=O)N[C@@H](CC[S+](C)C[C@H]1O[C@@H](n2cnc3c(N)ncnc32)[C@H](O)[C@@H]1O)C(=O)[O-] (stereo partly drawn)	10
CCCCC(=O)N[C@@H](CC[S+](C)C[C@H]1O[C@@H](n2cnc3c(N)ncnc32)[C@H](OC(=O)CCCC)[C@@H]1OC(=O)CCCC)C(=O)[O-] (stereo partly drawn)	87
CCCCOC(=O)[C@@H](N)CC[S+](C)C[C@H]1O[C@@H](n2cnc3c(N)ncnc32)[C@H](O)[C@@H]1O (stereo partly drawn)	65

I = CC(=O)N[C@@H](CC[S+](C)C[C@H]1O[C@@H](n2cnc3c(N)ncnc32)[C@H](OC(C)=O)[C@@H]1OC(C)=O)C(=O)[O-] (stereo partly drawn)
II = Cc1ccc(S(=O)(=O)N[C@@H](CC[S+](C)C[C@H]2O[C@@H](n3cnc4c(N)ncnc43)[C@H](O)[C@@H]2O)C(=O)[O-])cc1 (stereo partly drawn)
III = C[S+](CC[C@H](NC(=O)CCCC(=O)O)C(=O)[O-])C[C@H]1O[C@@H](n2cnc3c(N)ncnc32)[C@H](O)[C@@H]1O (stereo partly drawn)
Query :: Order the 3 compounds from highest to lowest Fa at 2 h. Please respond by ranking the labels in the order requested.
Result :: I, III, II
(I: 65%, III: 23%, II: 13%)

* * *

- experimental-protocol: physchem
- Type: physicochemical
- measurement-setup: water, pH 3
readout: degraded at 0.25 h (%)

molecule	reading-unit	degraded at 0.25 h
CCCCOC(=O)[C@@H](N)CC[S+](C)C[C@H]1O[C@@H](n2cnc3c(N)ncnc32)[C@H](O)[C@@H]1O (stereo partly shown) [C4 H9, SAM n-butyl ester]	%	3
C[S+](CC[C@H](N)C(=O)[O-])C[C@H]1O[C@@H](n2cnc3c(N)ncnc32)[C@H](O)[C@@H]1O (stereo partly shown) [H, S-adenosylmethionine]	%	90

I = COC(=O)[C@@H](N)CC[S+](C)C[C@H]1O[C@@H](n2cnc3c(N)ncnc32)[C@H](O)[C@@H]1O (stereo partly shown) [CH3, SAM methyl ester]
II = CCOC(=O)[C@@H](N)CC[S+](C)C[C@H]1O[C@@H](n2cnc3c(N)ncnc32)[C@H](O)[C@@H]1O (stereo partly shown) [C2 H5, SAM ethyl ester]
Query :: degraded at 0.25 h comparison. Which is larger, I or II ? Write down the label attached to your selection.
Result :: I
(I: 6%, II: 3%)

* * *

- experimental-protocol: physchem
- Assay type: physicochemical
- measurement-setup: water, pH 2
readout: degraded at 0.5 h (%)

compound	value-measured
CCCCOC(=O)[C@@H](N)CC[S+](C)C[C@H]1O[C@@H](n2cnc3c(N)ncnc32)[C@H](O)[C@@H]1O (stereo partly shown)	4

a = CCOC(=O)[C@@H](N)CC[S+](C)C[C@H]1O[C@@H](n2cnc3c(N)ncnc32)[C@H](O)[C@@H]1O (stereo partly shown)
b = C[S+](CC[C@H](N)C(=O)[O-])C[C@H]1O[C@@H](n2cnc3c(N)ncnc32)[C@H](O)[C@@H]1O (stereo partly shown)
c = COC(=O)[C@@H](N)CC[S+](C)C[C@H]1O[C@@H](n2cnc3c(N)ncnc32)[C@H](O)[C@@H]1O (stereo partly shown)
Query :: Arrange the 3 entries by degraded at 0.5 h so the values rise. Answer format: the labels, ordered as requested.
Result :: a, c, b
(a: 4%, c: 10%, b: 100%)

* * *

- experimental-protocol: physchem
- Assay type: physicochemical
- measurement-setup: water, pH 4
readout: degraded at 0.25 h (%)

Below, 2 compounds whose answers are already recorded.
compound	degraded at 0.25 h [%]
COC(=O)[C@@H](N)CC[S+](C)C[C@H]1O[C@@H](n2cnc3c(N)ncnc32)[C@H](O)[C@@H]1O (stereo partly shown) [CH3, SAM methyl ester]	8
CCOC(=O)[C@@H](N)CC[S+](C)C[C@H]1O[C@@H](n2cnc3c(N)ncnc32)[C@H](O)[C@@H]1O (stereo partly shown) [C2 H5, SAM ethyl ester]	5

P = CCCCOC(=O)[C@@H](N)CC[S+](C)C[C@H]1O[C@@H](n2cnc3c(N)ncnc32)[C@H](O)[C@@H]1O (stereo partly shown) [C4 H9, SAM n-butyl ester]
Q = C[S+](CC[C@H](N)C(=O)[O-])C[C@H]1O[C@@H](n2cnc3c(N)ncnc32)[C@H](O)[C@@H]1O (stereo partly shown) [H, S-adenosylmethionine]
Query :: Lab note: check whether P or Q shows the higher recorded degraded at 0.25 h. Lab note: record the label of whichever item you select.
Result :: Q

* * *

- experimental-protocol: physchem
- Type: physicochemical
- measurement-setup: water, pH 2
readout: degraded at 0.25 h (%)

compound	degraded at 0.25 h / %
CCOC(=O)[C@@H](N)CC[S+](C)C[C@H]1O[C@@H](n2cnc3c(N)ncnc32)[C@H](O)[C@@H]1O (stereo partly shown)	2

a = C[S+](CC[C@H](N)C(=O)[O-])C[C@H]1O[C@@H](n2cnc3c(N)ncnc32)[C@H](O)[C@@H]1O (stereo partly shown)
b = COC(=O)[C@@H](N)CC[S+](C)C[C@H]1O[C@@H](n2cnc3c(N)ncnc32)[C@H](O)[C@@H]1O (stereo partly shown)
Query :: Which value of degraded at 0.25 h is numerically greater: that of a or that of b ? Please reply using the label of the selected record.
Result :: a
(a: 80%, b: 5%)

* * *

- experimental-protocol: stability in the dry state at 45° C.
- Assay type: physicochemical
- measurement-setup: 45° C., 120 days, read-out: Degradation at 45° C. after 120 days
readout: degraded at 2880 h (%)

compound	value-measured
CC(=O)N[C@@H](CC[S+](C)C[C@H]1O[C@@H](n2cnc3c(N)ncnc32)[C@H](OC(C)=O)[C@@H]1OC(C)=O)C(=O)[O-] (some centres unmarked)	1.9
CC(=O)N[C@@H](CC[S+](C)C[C@H]1O[C@@H](n2cnc3c(N)ncnc32)[C@H](O)[C@@H]1O)C(=O)[O-] (some centres unmarked)	1.4

Value source: patent US4558122A
